Target: T1, recombinant, soluble human ASGR-1 (human, UniProt P07306 62-291)
T1 construct: biotinylated in the binning assay; also called soluble huASGR-1; Soluble ASGR-1 (Amgen)
T1 sequence: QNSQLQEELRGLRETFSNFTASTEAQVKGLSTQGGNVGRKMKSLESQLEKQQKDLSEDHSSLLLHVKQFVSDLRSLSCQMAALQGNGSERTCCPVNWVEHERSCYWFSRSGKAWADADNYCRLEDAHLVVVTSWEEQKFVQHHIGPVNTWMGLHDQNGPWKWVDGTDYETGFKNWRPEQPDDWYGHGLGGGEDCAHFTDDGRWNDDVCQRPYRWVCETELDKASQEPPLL
Experiment: Octet BLI dissociation, pH 7.4 minus calcium
Listing of recorded % Change Compared to pH 7.4 + Calcium by entry.
The reply must contain the numeric value and, after it, the unit.

Worked set:
Fill in reported % Change Compared to pH 7.4 + Calcium for this entry: 159H8 (antibody, V domains shown, hybridoma mAb) VH: QVQLVESGGGVVQPGRSLRLSCAASGFTFSTYGMHWVRQAPGKGLEWVAVIWYDGSNKYYADSVKGRFTISRDNSKNTLYLQMNSLRAEDTAVYYCARDRVSCSSTSCPYYYYYGMDVWGQGTTVTVSS VL: SYELTQPPSVSVSPGQTASITCSGDKLGDKYVCWYQQKPGQSPVLVIYQDRKRPSGIPERFSGSNSGNTATLTISGTQALDEADYYCQAWGNSSFVVFGGGTKLTVL
6%

Fill in reported % Change Compared to pH 7.4 + Calcium for this entry: 196C7 (antibody, V domains shown, hybridoma mAb) VH: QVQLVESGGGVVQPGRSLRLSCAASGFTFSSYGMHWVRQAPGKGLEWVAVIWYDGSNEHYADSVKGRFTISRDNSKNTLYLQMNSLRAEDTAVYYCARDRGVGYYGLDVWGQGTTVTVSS VL: DIQMTQSPSSLSASVGDRVTITCRANQAISNYLAWFQQKPGKAPKSLIYAASSLQSGVPSKFSGSGSGTDFTLTISSLQPEDFATYYCQHYLTYPLTFGGGTKVEIK
-8%

Fill in reported % Change Compared to pH 7.4 + Calcium for this entry: 199E3 (antibody, V domains shown, hybridoma mAb) VH: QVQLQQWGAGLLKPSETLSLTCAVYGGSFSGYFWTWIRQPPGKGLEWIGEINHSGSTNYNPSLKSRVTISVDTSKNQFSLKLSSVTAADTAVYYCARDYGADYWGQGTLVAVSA VL: DIQMTQSPSSLSASVGDRVTITCRASQGIRNDLGWYQQKPGKAPKRLISSASSLQRGVPSRFSGSGSGTEFTLTISSLQPEDFATYYCLQHKRYPLTFGGGTKVEIK
-5%

Fill in reported % Change Compared to pH 7.4 + Calcium for this entry: 154F4 (antibody, V domains shown, hybridoma mAb) VH: QVQLVESGGGVVQPGRSLRLSCAASGFTFSSYGMHWVRQAPGKGLEWVAVIWYDGSNKYYADSVKGRFTISRDNSKNTLYLQMNSLRAEDTAVYYCAREDSYCSGTSCPYYYYYGMDVWGQGTTVTVSS VL: SYELTQPPSVSVSPGQTASITCSGDKLGNKYVCWYQQKPGQSPVEVIYKDSKRPSGIPERFSGSNSGNTGTLTISGTQAMDEADYYCQAWDNSTLVFGGGTKLTVL
10%

Next:
Fill in reported % Change Compared to pH 7.4 + Calcium for this entry: 60E8 (antibody, V domains shown, hybridoma mAb) VH: QVQLQESGPGLVRPSATLSLTCTVSGGSISRSSYYWGWIRQPPGKGLEWIGSIYYSGSASYNPSLKSRVTISVDTSENQFSLRLSSVTAADTAVYYCARLDSGWSFDYWGQGTLVTVSS VL: DIQMTQSPSSLSASVGDRVTFTCRASQGIRNDLGWFQQKPGKAPKRLIYAASSLQSGVPSRFSGSGSGTEFTLTISSLQPEDFATYYCLQHSSYPLTFGGGTKVEIK
3%
